test system: Vero cells; experiment: Cytotoxicity for Vero cells; format: cell-based; details: read-out: Cytotoxicity EC50
pEC50: −log10 of the molar value.
recordedEndpoint: pEC50

// worked examples, pEC50 included
1) O=P(O)(O)C(CSCCOc1ccc(Oc2ccccc2)cc1)P(=O)(O)O [Compound 48] | < 3.70
2) O=P(O)(O)C(CSCCOc1cccc(Oc2ccccc2)c1)P(=O)(O)O [Compound 58] | < 4.00
3) O=P(O)(O)C(CNCCOc1ccc(Oc2ccccc2)cc1)P(=O)(O)O [Compound 43] | < 4.00

// switching to the query molecule
Query: Indicate the recorded pEC50 value for this molecule: O=P(O)(O)C(CNCCOc1cccc(Oc2ccccc2)c1)P(=O)(O)O [Compound 53]
Result: < 4.30
